Origin of the recorded values: patent US20230052369A1

Exercise: state measured Kd for each of the binders provided.
Molecular target: T1, recombinant His-tagged human FRα (human, UniProt P15328 25-234)
T1 construct: Bought protein; also called hFRα; FRα-HIS
T1 sequence (P15328 25-234 limits assumed): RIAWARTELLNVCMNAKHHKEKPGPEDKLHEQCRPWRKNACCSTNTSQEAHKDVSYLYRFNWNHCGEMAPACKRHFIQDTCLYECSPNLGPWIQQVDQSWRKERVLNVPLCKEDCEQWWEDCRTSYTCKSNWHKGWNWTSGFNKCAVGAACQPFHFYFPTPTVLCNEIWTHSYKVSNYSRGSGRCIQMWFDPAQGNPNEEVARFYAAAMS
Test: BLI, supernatant, n=1

Ask: Entry under review: v23810 (antibody, human IgG1, kappa, V domains shown, also called humanized 8K22 H2L4) VH: EVQLVESGGGLVQPGGSLRLSCAASGFTISNNYYMCWVRQAPGKGLEWIACIYGGISGRTYYADSAKGRFTISKDNSKNTVYLQMNSLRAEDTAVYYCVRGYVGTSNLWGQGTLVTVSS VL: DIQMTQSPSSLSASVGDRVTITCQASQSIYSSLAWYQQKPGKAPKLLIYDASHLASGVPSRFSGSGSGTDFTLTISSVQPEDAATYYCQGGWYSSAATYVPNTFGGGTKVEVKR . Reported Kd?
Reply: 35 nM

Ask: Entry under review: v23818 (antibody, human IgG1, kappa, V domains shown, also called humanized 8K22 H5L5) VH: EVQLVESGGGLVQPGGSLRLSCAASGFTISNNYYMCWVRQAPGKGLEWIACIYGGISGRTYYADWAKGRFTISKDSSKNTVYLQMNSLRAEDTAVYYCVRGYVGTSNLWGQGTLVTVSS VL: DIQMTQSPSSLSASVGDRVTITCQASQSIYSSLAWYQQKPGKAPKLLIYDASHLASGVPSRFSGSRYGTDFTLTISSVQPEDAATYYCQGGWYSSAATYVPNTFGGGTKVEVKR . Reported Kd?
Reply: 17.4 nM

Ask: Entry under review: v23809 (antibody, human IgG1, kappa, V domains shown, also called humanized 8K22 H1L4) VH: EVQLVESGGGLVQPGGSLRLSCAASGFTISNNYYMCWVRQAPGKGLEWVSCIYGGISGRTYYADSVKGRFTISKDNSKNTLYLQMNSLRAEDTAVYYCVRGYVGTSNLWGQGTLVTVSS VL: DIQMTQSPSSLSASVGDRVTITCQASQSIYSSLAWYQQKPGKAPKLLIYDASHLASGVPSRFSGSGSGTDFTLTISSVQPEDAATYYCQGGWYSSAATYVPNTFGGGTKVEVKR . Reported Kd?
Reply: 12.1 nM
